system-tested: T1, O6
T1 chain: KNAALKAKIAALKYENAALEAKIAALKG
test-name: two-hybrid library CC0;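 also: natural log of median RNA to DNA barcode read ratio; higher means stronger binding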
condition-set: mean of both orientations
attribute-measured: interaction score
Give bare numbers.

Example entries begin here.
binder	interaction score
KIAALKAKNAALKYEIAALEAKNAALKG [O16]	-1.77
KIAALKAEIAALEYKNAALKAKNAALKG [O4]	-2.42
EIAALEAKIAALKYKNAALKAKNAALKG [O12]	-2.7
KNAALKAKIAALKYENAALEAKIAALKG [O6]	-2.7

Please report interaction score for every entry that follows.
1. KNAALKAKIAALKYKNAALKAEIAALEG [O13]
2. ENAALEAEIAALEYKNAALKAEIAALEG [O5]

[-1.12, 1.41]

Determine from records and report interaction score for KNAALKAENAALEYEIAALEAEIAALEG [O1]
-2.76

The reported numbers originate from paper PMC10397247.
